These records show Ki for Tyrosine-protein phosphatase non-receptor type 1 (Homo sapiens, UniProt P18031).
parameter: Ki

mol	observed.result
O=C(CSc1nc2cc(Oc3ccc4ccccc4c3)c(Cl)cc2[nH]1)Nc1ccc(C(=O)O)cc1	12.6 µM
O=C(CSc1nc2cc(Oc3cccc4ccccc34)ccc2[nH]1)Nc1ccc(C(=O)O)cc1	30.2 µM
